Data origin, for the record: patent US6972319B1

Exercise: for every item that follows, state its recorded R3 EC50.
Biological target: T1, PACAP-R3 (human, UniProt P41587 24-438)
T1 sequence (looked up): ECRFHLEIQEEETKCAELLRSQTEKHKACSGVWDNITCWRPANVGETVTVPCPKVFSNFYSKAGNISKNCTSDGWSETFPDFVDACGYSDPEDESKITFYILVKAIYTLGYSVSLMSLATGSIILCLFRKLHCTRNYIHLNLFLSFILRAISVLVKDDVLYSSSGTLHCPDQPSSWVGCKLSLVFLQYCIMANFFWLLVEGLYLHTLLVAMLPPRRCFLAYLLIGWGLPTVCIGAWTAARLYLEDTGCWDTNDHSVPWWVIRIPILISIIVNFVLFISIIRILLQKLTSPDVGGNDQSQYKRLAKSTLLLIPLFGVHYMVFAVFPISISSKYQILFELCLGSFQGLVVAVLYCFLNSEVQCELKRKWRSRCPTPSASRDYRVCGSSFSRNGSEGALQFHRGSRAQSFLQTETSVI
Test: cell-based or functional assay
Numbers only, in nM.

For orientation, consider the following solved cases.
> print(dat)
                                    binder  test.value
1    HSDAVFTDNYTRLRKQMAAKKYLNSIKKK [R3P54]         0.5
2  HSDAVFTDNYTRLRKQMALKKYLNSIKNKR [R3P105]         0.3
3  HSDAVFTDNYTRLRKQMAAKKYLNSIQNKR [R3P127]         0.5
4  HSDAVFTDNYTRLRKQMAAKKYLQSIKNKRY [R3P69]         0.5
5  HSDAVFTDNYTRLRKQMAVKKYLNSIKKKRY [R3P56]         0.4

Each binder below has a recorded value; state its R3 EC50.
1. HSDAVFTDNYTRLRKQLAVKKYLNDIKNGGT [R3P29]
2. HSDAVFTDNYTRLRKQMAAKKYLNSIKN [R3P49]
3. HSDAVFTDNYTRLRKQMAAKKYLNSIKNDR [R3P136]
4. HSDAVFTDNYTRLRKQMAAKKYLNSIKNGR [R3P139]

OUT:
1: 0.5; 2: 0.27; 3: 0.3; 4: 0.4

Each binder below has a recorded value; state its R3 EC50.
1. HSDAVFTDNYTRLRKQMAAKKYLNSIKNMR [R3P143]
2. HSDAVFTDNYTRLRKQVAAKKYLQSILNK [R3P94]

OUT:
[0.2, 0.09]
